Provenance of the data: the supplement of paper PMC10037445

Test system: RAW-Dual
measurement description: NF-kB SEAP reporter activity, fold change vs agonist alone; higher = enhanced NF-kB activity
measurement conditions: library stock concentration (final ~1000-fold dilution): 10 mM; cytotoxicity flag (confluency mask): not cytotoxic; agonist: Imiquimod (TLR7) […]
In all, about 2,900 compounds were measured (“NF-kB SEAP reporter activity, fold change vs agonist alone”: median about 0.99, highest 2% from about 2.6 on). The list comes from a sample in which the highest values are over-represented; it also holds close analogues and randomly drawn compounds.
The threshold is inclusive: NF-kB SEAP reporter activity of exactly 1 counts as MET; values below receive NOT MET.

The following compounds have reported results that may help.
CN1C(=O)c2sccc2N(C)c2nc(Nc3ccc(S(N)(=O)=O)cc3)ncc21
MET
O=C(O)C1=C/C(=N\Nc2ccc(S(=O)(=O)Nc3ccccn3)cc2)C=CC1=O
MET
O=C(c1cn(Cc2cncn2Cc2ccc(Br)cc2)cc1-c1cccc2ccccc12)N1CCOCC1
MET
O=C1C(CCC(O)c2ccc(F)cc2)C(c2ccc(O)cc2)N1c1ccc(F)cc1 (centres undefined)
NOT MET
CNc1ccc([N+](=O)[O-])cc1-n1cnc(-c2ccc(C(F)(F)F)cc2)c1
MET

Could you tell me if the measured NF-kB SEAP reporter activity of `Cc1cc(N=Nc2ccc(S(=O)(=O)Nc3ccccn3)cc2)c(N)cc1O` reaches 1 or more?
MET

Next up: `COc1cc2nccc(Oc3ccc(NC(=O)C4(C(=O)Nc5ccc(F)cc5)CC4)cc3)c2cc1OC`
NOT MET

Moving on to `Cc1nc(-c2nc(-c3ccc(OC(F)(F)F)cc3)no2)nn1Cc1cccc(N2CCC(S(C)(=O)=O)CC2)c1`
NOT MET

What about CC(C)CCNC(=O)C(CC(C)C)NC(=O)C1OC1C(=O)O (centres undefined) ?
NOT MET
